Data credit: ChEMBL document CHEMBL1201862

# Test system: T47D
# TEST_DESCRIPTION: NCI tumour cell line growth inhibition, 48 h
Calls of active or inactive are those of the source. No stated cut-off is given here; in the data, active = GI50 up to about 1.1 µM and inactive = higher.
Possible outcomes: active, inactive

> print(dat)
                                   molecule  label.class
1  CN1C(=O)C(CC=O)(C(C)(C)C)c2ccccc21 (stereo unspecified)     inactive
2  CN(CCCCN1CCCC1)CCCCN(C)C(=O)Cc1ccc(Cl)c(Cl)c1     inactive
3  CN(C)CCNc1ccc([N+](=O)[O-])c2nc3ccccc3c(N)c12       active
4                  NNC(=S)N1CCN(C(=S)NN)CC1     inactive
5   COc1ccc(/C=C\c2cc(OC)c(OC)c(OC)c2)cc1OC     inactive
6      O=C(OCc1ccccc1CN1CCOCC1)c1cccc(Br)c1     inactive

====

# Tested on: DU-145
# TEST_DESCRIPTION: NCI tumour cell line growth inhibition, 48 h
The source made the active and inactive calls. No stated cut-off is given here; in the data, active = GI50 up to about 1.1 µM and inactive = higher.
Outcomes: True = active, False = inactive

> print(dat)
                                    compound  tested.system  label.class
 1  OCC1CCCC(n2cnc3c(S)ncnc32)O1 (stereo not given)         DU-145        False
 2  CCCc1cn2c(/C=N/NC(=N)N)c(-c3ccc(Cl)c([N+](=O)[O-])c3)nc2s1         DU-145        False
 3  CC1(C)O[C@@H](CP(c2cccc3ccccc23)c2cccc3ccccc23)[C@H](CP(c2cccc3ccccc23)c2cccc3ccccc23)O1         DU-145        False
 4      CC(=O)c1ccc(Nc2nc3ccccc3c3occc23)cc1         DU-145        False
 5  COc1ccc2[nH]c(Cl)c(/C=C3/C(=O)N(c4ccccc4)c4ccccc43)c2c1         DU-145        False
 6  CCC[C@H](C)C[C@H](C)C[C@H](C)/C=C(\C)[C@@H](O)[C@@H](C)C(=O)CC         DU-145        False
 7  CN1C(=O)C(CC=O)(C(C)(C)C)c2ccccc21 (stereo not given)         DU-145        False
 8  O=C(O)c1cc2ccccc2c(/N=N/c2ccc(S(=O)(=O)Nc3ccccn3)cc2)c1O         DU-145        False
 9    COc1ccc(P2(=S)Oc3ccccc3-c3ccccc3O2)cc1         DU-145         True
10  O=[N+]([O-])c1ccc2c(c1)Nc1c3ccccc3nc3cccc-2c13         DU-145         True

====

# System: NCI-H23
# TEST_DESCRIPTION: NCI tumour cell line growth inhibition, 48 h
Counter-ions that a name gives are not always drawn. Activity calls are given as the source filed them. Rule as the data show it: active = GI50 up to about 1.1 µM and inactive = higher.
Labels: active, inactive

COMPOUND	LABEL_CLASS
O=C1OC(c2ccc(O)c(F)c2)(c2ccc(O)c(F)c2)c2cccc3cccc1c23	inactive
CN(C)C1(N(C)C)Oc2c(c(=O)n(C)c(=O)n2C)C(c2ccc(F)cc2)C1(F)F (centres undefined)	inactive
C=CCCCC(C#N)(c1ccccc1)N1CCCC1 (centres undefined)	inactive
OC1[C@H]([C@H]2CCCC[C@@H]2O)CCC[C@@H]1[C@@H]1CCCC[C@H]1O (some centres undefined)	inactive
O=C1c2ccccc2OCC12OC21C=CC(Cl)=CC1 (centres undefined)	inactive
Cc1cccc(C)c1NC(=O)CCCC(=O)C(C#N)c1ccc(Cl)cc1 (centres undefined)	inactive
CO/N=C(/C(=O)Nc1c[n+](CC(=O)[O-])cs1)c1csc(N)n1	inactive
N=C1C=C(N)C(=O)c2[nH]c(=O)ccc21	inactive
COC(=O)CCc1cc(OC)c2oc(-c3ccc(OC)c(OC)c3)c(CO)c2c1	inactive
CC1=C(C)C(=O)C(C2=C(C3=CC(=O)C(C)=C(C)C3=O)C(=O)C(C)=C(C)C2=O)=CC1=O	inactive
c1ccc(CN2CCc3[nH]c4ccccc4c3C2)cc1	inactive
CC(C)CC(NC(=O)C(CSc1ccc([N+](=O)[O-])cc1)Cc1ccccc1)C(=O)Nc1ccccc1 (centres undefined)	inactive
Clc1ccc(Nc2nnc(CNc3ccc(-c4nnc(Nc5ccc(Cl)cc5)s4)cc3)s2)cc1	inactive
Cc1ccc(S(=O)(=O)Nn2c(S)c(C#N)c(-c3ccc(N(C)C)cc3)c(C#N)c2=O)cc1	inactive
C=C1C(=O)OC2CC(C)C(/C=C/C(C)=O)=CCC12 (centres undefined)	inactive
O=C(Nc1ccc2nc(-c3ccccc3)cn2c1)Oc1ccccc1	inactive
Nc1ccc2c(SCCSc3c4ccccc4nc4cc(N)ccc34)c3ccccc3nc2c1	inactive
c1ccc2c(c1)CCN1CCc3ccccc3C1C2 (centres undefined)	inactive
Cc1ccc(S(=O)(=O)NC(=O)C2=C3SCCN3C(=O)N(S(=O)(=O)c3ccc(C)cc3)C2c2ccccc2)cc1 (centres undefined)	inactive
O=[N+]([O-])C1C2C=CC(C2)[C@H]1c1ccco1 (some centres undefined)	active
COC(=O)C1=CCC[C@H]2[C@@]1(COC(C)=O)CC[C@@H](C)[C@]2(C)CC(=O)c1ccoc1	inactive
CC1(C)O[C@@H](CP(c2cccc3ccccc23)c2cccc3ccccc23)[C@H](CP(c2cccc3ccccc23)c2cccc3ccccc23)O1	inactive
Clc1ccc(-c2nnc(-c3nn(-c4ccccc4)c4nc5ccccc5nc34)o2)cc1	inactive
Cc1cc2cc3ccccc3cc2c(=O)[nH]1	inactive
CC(=O)n1c(=O)c2cc3c(=O)n(-c4cccc(C#N)c4)c(=O)c3cc2c1=O	inactive
COc1ccc(C2ON(c3ccccn3)CC=C2C)cc1 (centres undefined)	inactive
C=CC(C1=CC(=O)C(OC)=CC1=O)c1ccccc1 (centres undefined) [4-METHOXYDALBERGIONE]	inactive
COc1cc(C#CC(=O)OC/C=C/c2ccc3c(c2)OCO3)cc(OC)c1OC	inactive
CN(C)C(n1cc2c(c1)-c1ccc(Cl)cc1C(c1ccccc1F)=NC2)n1cc2c(c1)-c1ccc(Cl)cc1C(c1ccccc1F)=NC2	inactive
CS(=O)(=O)C(C#N)c1nc2ccccc2nc1Cl (centres undefined)	inactive
O=C(N/C(=C/c1ccc(Cl)cc1Cl)c1nc2ccccc2s1)c1ccccc1	inactive
CC1OC(OC2C(OC(=O)[C@]34CCC(C)(C)C[C@H]3C3=CC[C@@H]5[C@@]6(C)CC[C@H](OC7OC(C(=O)O)C(O)C(O)C7O)C(C)(C)[C@@H]6CC[C@@]5(C)[C@]3(C)C[C@H]4O)OCC(O)C2O)C(O)C(OC2OCC(O)(CO)C2O)C1OC1OCC(O)C(O)C1O (some centres undefined)	inactive
COc1cc(-c2cc(=O)c3ccccc3o2)ccc1N	inactive
CC1=NN(c2ccccc2)C(=O)C1C(=O)C(=O)Nc1ccc(C)cc1C (centres undefined)	inactive
CN[C@@H]1[C@H](O)[C@H](NC)[C@H]2O[C@@]3(O)C(=O)C[C@@H](C)O[C@H]3O[C@@H]2[C@H]1O [SPECTINOMYCIN SULFATE]	inactive
Cn1c(=O)cc(NCCc2ccccc2)[nH]c1=O	inactive
NNC(=O)C(=O)N/N=C1/CCCC1C(=O)CCC(=O)Nc1ccc(Cl)cc1 (centres undefined)	inactive
N#CC(C#N)=C1NC(=O)CC(=O)N1	inactive
NCC1CCCCC1.O=C(O)NCC1CCCCC1	inactive
